System: human hepatocytes
protocol description: Assay A: Metabolic Stability in Human Hepatocytes
Type: in vitro ADME
protocol conditions: cryopreserved human hepatocytes, 10^6 viable cells/mL, 1 μM compound, 37° C.
Doc: threshold 10 μl/min/1E6 (exclusive). Items with Assay A: Human Heps Met Clint GMean CLint (μl/min/1E6) beneath it return Condition met; others return Condition not met.

1. O=C(Nc1ccnn1C1CCCCC1)c1cc(-c2ccc(F)c(O)c2)on1 [Example 99]	Condition not met
2. O=C(c1nnc(-c2ccc(F)c(O)c2)o1)N1CCOC2(CCC2)C1 [Example 90]	Condition not met
3. O=C(c1noc(-c2cc(F)c(F)c(O)c2F)n1)N1CC(Oc2ccccc2)C1 [Example 2]	Condition not met
4. N#Cc1c(C(=O)N2CCN(c3ccccn3)CC2)noc1-c1cc(F)c(F)c(O)c1F [Example 15]	Condition not met
5. CC(C)[C@H]1CN(C(=O)c2noc(-c3cc(F)c(F)c(O)c3F)n2)C[C@@H](C)O1 (racemic) [Example 122]	Condition met

Prompt line: Could you please tell me whether Assay A: Human Heps Met Clint GMean CLint (μl/min/1E6) recorded for N#Cc1cccc(C2CN(C(=O)c3noc(-c4cc(F)c(F)c(O)c4F)n3)C2)c1 [Example 85] is less than 10 μl/min/1E6?
Response line: Condition not met

Prompt line: Could you please tell me whether Assay A: Human Heps Met Clint GMean CLint (μl/min/1E6) recorded for CCCC1CCN(C(=O)c2noc(-c3cc(F)c(F)c(O)c3F)n2)C1 (centres unmarked) [Example 76] is less than 10 μl/min/1E6?
Response line: Condition not met

Prompt line: Could you please tell me whether Assay A: Human Heps Met Clint GMean CLint (μl/min/1E6) recorded for O=C(c1noc(-c2cc(F)c(F)c(O)c2F)n1)N1CC[C@H](Oc2ccccc2)C1 [Example 93] is less than 10 μl/min/1E6?
Response line: Condition not met

Prompt line: Could you please tell me whether Assay A: Human Heps Met Clint GMean CLint (μl/min/1E6) recorded for N#Cc1cccc2c1CCN(C(=O)c1noc(-c3c(F)c(O)c(F)c(F)c3I)n1)C2 [Example 109] is less than 10 μl/min/1E6?
Response line: Condition not met

Prompt line: Could you please tell me whether Assay A: Human Heps Met Clint GMean CLint (μl/min/1E6) recorded for C[C@@H]1C[C@H](C)CN(C(=O)c2noc(-c3cc(F)c(F)c(O)c3F)n2)C1 [Example 37] is less than 10 μl/min/1E6?
Response line: Condition met

Prompt line: Could you please tell me whether Assay A: Human Heps Met Clint GMean CLint (μl/min/1E6) recorded for O=C(c1ccc(-c2cc(F)c(F)c(O)c2F)s1)N1CC[C@H](c2ccccc2)C1 [Example 33] is less than 10 μl/min/1E6?
Response line: Condition not met
